FYI, the data here is from patent EP4011367A1.

# assayed_system: SARS-CoV-2 3CL-Pro (Severe acute respiratory syndrome coronavirus 2)
# Construct: SARS-CoV-2 main protease (3CL-Pro), also termed M-Pro
# protocol_text: biochemical
# condition: dose response, 8 concentrations, absence of DTT; 60 min pre-incubation at 37 °C; 15 µM substrate, 60 nM enzyme; read-out: IC50
measurement_label: IC50
Please answer using a numeric value trailed by its unit.

Q: Kindly indicate its recorded IC50. Item: S=c1[nH]nc(Cc2ccccc2)s1 [compound 20, 5-benzyl-3H-1,3,4-thiadiazole-2-thione]
Result: 390 nM

Q: Determine from records and report IC50 for CN=c1nc(-c2ccccc2)n(-c2ccccc2)s1 [compound 76]
Result: 980 nM

Q: Determine from records and report IC50 for CN(C)S(=O)(=O)c1cccc(-n2sc3ccccc3c2=O)c1 [compound 13]
Result: 20 nM

Q: // fetch IC50 given entry Oc1cc(CNC(=S)C=Cc2cc(O)c(O)c(Br)c2)cc(O)c1O [compound 68]
Result: 480 nM

---

Can you tell me pIC50 for the items I'm about to list?
# assayed_system: SARS-CoV-2 3CL-Pro (Severe acute respiratory syndrome coronavirus 2, UniProt P0DTD1)
# Construct: SARS-CoV-2 main protease (3CL-Pro), also termed M-Pro
# protocol_text: biochemical
# condition: read-out: IC50
Where a name gives a salt, the structure may show the parent alone.
# pIC50: negative log10 of molar concentration; output just the value

Q: Provide the reported pIC50 (system: SARS-CoV-2 3CL-Pro (Severe acute respiratory syndrome coronavirus 2, UniProt P0DTD1)) for CN(C)C(=S)SC(=S)N(C)C
Result: 6.03

Q: Give pIC50 for CN1CC[C@@]2(C)c3cc(O)ccc3N(C)[C@@H]12 tested on SARS-CoV-2 3CL-Pro (Severe acute respiratory syndrome coronavirus 2, UniProt P0DTD1).
Result: 5.70

Q: Tell me pIC50 of O=c1cc(-c2ccc(O)cc2)oc2cc(O)cc(O)c12 [compound 4, 4',5,7-Trihydroxyflavone] when tested on SARS-CoV-2 3CL-Pro (Severe acute respiratory syndrome coronavirus 2, UniProt P0DTD1).
Result: 5.52

Q: Lab note: SARS-CoV-2 3CL-Pro (Severe acute respiratory syndrome coronavirus 2, UniProt P0DTD1) assay, enter pIC50 for CC(Cc1ccc(O)c(O)c1)C(C)Cc1ccc(O)c(O)c1 (stereo not drawn) here
Result: 5.59

Q: Consider the molecule Cc1ccc(-n2sc(=O)n(Cc3ccc(F)cc3)c2=O)cc1 tested on SARS-CoV-2 3CL-Pro (Severe acute respiratory syndrome coronavirus 2, UniProt P0DTD1); state its pIC50.
Result: 6.82

Q: State pIC50 on SARS-CoV-2 3CL-Pro (Severe acute respiratory syndrome coronavirus 2, UniProt P0DTD1). Entry: CN(C)CCNc1nc2cc(O)ccc2c2c1C(=O)c1ccccc1-2 [compound 38, dihydrochloride]
Result: 5.52

Q: Under SARS-CoV-2 3CL-Pro (Severe acute respiratory syndrome coronavirus 2, UniProt P0DTD1), report pIC50 for O=C(O)c1ccc(SSc2ccc(C(=O)O)cn2)nc1
Result: 6.62

Q: Provide pIC50, recorded with SARS-CoV-2 3CL-Pro (Severe acute respiratory syndrome coronavirus 2, UniProt P0DTD1), of O=C1C(Cl)=C(Cl)C(=O)C(Cl)=C1Cl
Result: 7.70

Q: Please look at S=c1[nH]c2ccccc2s1 and tell me its recorded pIC50 on SARS-CoV-2 3CL-Pro (Severe acute respiratory syndrome coronavirus 2, UniProt P0DTD1).
Result: 5.76

---

# assayed_system: SARS-CoV-2 3CL-Pro (Severe acute respiratory syndrome coronavirus 2)
# Construct: SARS-CoV-2 main protease (3CL-Pro), also termed M-Pro
# protocol_text: biochemical
# condition: read-out: 3CL-Pro Inhibition [%] Primary Screen (20 µM)
measurement_label: inhibition at 20 µM (%)
I only need the number, in %, no unit after it.

Q: Report inhibition at 20 µM for C[N+]1(C)CCC(OC(=O)C(c2ccccc2)c2ccccc2)CC1 [compound 90]
Result: 97.8

Q: Identify inhibition at 20 µM associated with the compound O=C1C(Cl)=C(Cl)C(=O)C(Cl)=C1Cl [compound 43]
Result: 101

Q: Provide one value: measured inhibition at 20 µM of Nc1nnc(Sc2ncc([N+](=O)[O-])s2)s1 [compound 44]
Result: 99.9

Q: State, in one line, measured inhibition at 20 µM of Oc1c(I)cc(I)c(O)c1I [compound 65, 2,4,6-Triiodoresorcine]
Result: 99.7

Q: Kindly indicate its recorded inhibition at 20 µM. Item: O=C1C=CC(=O)C2=C1C1c3ccccc3C2c2ccccc21 [compound 61]
Result: 99.2

Q: Provide inhibition at 20 µM value for the following compound: O=C(O)c1ccc(SSc2ccc(C(=O)O)cn2)nc1 [compound 29]
Result: 100

Q: Tell me its inhibition at 20 µM given Cc1ccc(S(=O)(=O)N[C@@H](Cc2ccccc2)C(=O)C(=O)CCl)cc1 [compound 21] as the entry.
Result: 99.7

Q: Please report the measured inhibition at 20 µM for CCC(C)SSc1ncc[nH]1 (stereo not drawn) [compound 28, (2-Imidazolyl)(1-methylpropyl)disulfide]
Result: 100

Q: Look up inhibition at 20 µM of Cc1ccc(-n2sc3ccccc3c2=O)cc1 [compound 12] and report it.
Result: 101
